Tested on: Penicillium expansum
Protocol Description: Fungicidal activity, fumigation of Penicillium expansum spore plates in sealed 6 L containers
Format: cell-based
Run Parameters: Penicillium expansum, 24 h, Experiment #2; 24 h exposure, further 48 h incubation; read-out: Amount for 100% inhibition (μg compound/L air)
Each item that follows carries a reported MIC.
Unit ng/mL implied. Number only.

Some molecules with recorded MIC:
{"Molecule": "CCCC(=O)N(C)N=O [Compound 13, N-methyl-N-nitrosobutyramide]", "Endpoint Unit": "ng/mL", "Value Observed": 7.1}
{"Molecule": "CN(N=O)C(=O)C1CC1 [Compound 7]", "Endpoint Unit": "ng/mL", "Value Observed": 10}

*Q* // Input: CC(C)C(=O)N(C)N=O [Compound 1, N-methyl N-nitrosoisobutyramide] . Output its MIC only.
*A* 4.3

* * *

Test system: Penicillium expansum
Protocol Description: Fungicidal activity, fumigation of Penicillium expansum spore plates in sealed 6 L containers
Format: cell-based
Run Parameters: Penicillium expansum, 24 h, Experiment #4; 24 h exposure, further 48 h incubation; read-out: Amount for 100% inhibition (μg compound/L air)
Experimental: Experiments were conducted to determine the fungicidal activity of several compounds of the invention using Penicillium expansum as the test organism. Plates of potato dextrose agar were streaked with a standard culture of Penicillium expansum spores (0.1 ml of a 2×10^5 cfu/ml) and placed in sealed plastic containers (nominal volume 6 liters). The containers (Rubbermaid) were fitted with a small fan (Radio Shack 12VDC) in the lids to ensure good distribution of the test compounds. […]
The following compounds are listed with their measured MIC values.
Lab book: enter the figure in ng/mL, no units written.

{"Compound": "CCC(=O)N(C)N=O [Compound 20, N-methyl-N-nitrosopropanamide]", "Value Observed": 7.5}
{"Compound": "CCCCC(=O)N(C)N=O [Compound 21, N-methyl-N-nitrosopentanamide]", "Value Observed": 16.3}
{"Compound": "CC(C)C(=O)N(C)N=O [Compound 1, N-methyl N-nitrosoisobutyramide]", "Value Observed": 8.4}
{"Compound": "CCCCCCC(=O)N(C)N=O [Compound 9, N-methyl-N-nitrosoheptanamide]", "Value Observed": 7.5}

Consider the additional compound presented here.
*Q* Return MIC for the following compound: CCCCCC(=O)N(C)N=O [Compound 2, N-methyl-N-nitrosohexanamide]
*A* 4.3

* * *

The entries below come with measured MIC values attached.
Test system: Penicillium expansum
Protocol Description: Fungicidal activity, fumigation of Penicillium expansum spore plates in sealed 6 L containers
Assay type: cell-based
Run Parameters: Penicillium expansum, 24 h, Experiment #5; 24 h exposure, further 48 h incubation; read-out: Amount for 100% inhibition (μg compound/L air)
Please respond with the number in ng/mL and leave the unit unwritten.

Use these answered entries as a reference point.
{"Compound": "C/C=C/C(=O)N(C)N=O [Compound 8, (2E)-N-methyl-N-nitrosobut-2-enamide]", "Value Observed": 7.5}
{"Compound": "CN(N=O)C(=O)C1CCC1 [Compound 5, N-methyl-N-nitrosocyclobutanecarboxamide]", "Value Observed": 1.2}

*Q* Name the recorded MIC of the item C=CC(=O)N(C)N=O [Compound 4, N-methyl-N-nitrosoacrylamide] in your answer.
*A* 1.1

* * *

Tested on: Staphylococcus aureus (MRSA) (ATCC 33591)
Protocol Description: MIC and MBC of Compound 1 and analogs, macrodilution
Run Parameters: 25 h
Recorded Endpoint: MBC

Below: 6 compounds and their reported MBC.
{"Compound": "C/C=C/C(=O)N(C)N=O [drawing 52]", "System": "Staphylococcus aureus (MRSA) (ATCC 33591)", "MBC": "25 µg/mL"}
{"Compound": "CCCCCCC(=O)N(C)N=O [drawing 54]", "System": "Staphylococcus aureus (MRSA) (ATCC 33591)", "MBC": "25 µg/mL"}
{"Compound": "CC(C)C(=O)N(C)N=O [Compound 1, N-methyl N-nitrosoisobutyramide]", "System": "Staphylococcus aureus (MRSA) (ATCC 33591)", "MBC": "12.5 µg/mL"}
{"Compound": "CCC(=O)N(C)N=O [drawing 53]", "System": "Staphylococcus aureus (MRSA) (ATCC 33591)", "MBC": "25 µg/mL"}
{"Compound": "COCC(=O)N(C)N=O [drawing 50]", "System": "Staphylococcus aureus (MRSA) (ATCC 33591)", "MBC": "> 50 µg/mL"}
{"Compound": "CC(C)CC(=O)N(C)N=O [drawing 55]", "System": "Staphylococcus aureus (MRSA) (ATCC 33591)", "MBC": "25 µg/mL"}

Next, consider the following compound.
*Q* Provide measured MBC on Staphylococcus aureus (MRSA) (ATCC 33591) for C=CC(=O)N(C)N=O [drawing 51] please.
*A* > 50 µg/mL
